Data origin: paper PMC10786891

Target: T1, EsCas13d, nuclease-dead (Eubacterium siraeum, UniProt B0MS50, R295A;H300A;R849A;H854A)
T1 sequence: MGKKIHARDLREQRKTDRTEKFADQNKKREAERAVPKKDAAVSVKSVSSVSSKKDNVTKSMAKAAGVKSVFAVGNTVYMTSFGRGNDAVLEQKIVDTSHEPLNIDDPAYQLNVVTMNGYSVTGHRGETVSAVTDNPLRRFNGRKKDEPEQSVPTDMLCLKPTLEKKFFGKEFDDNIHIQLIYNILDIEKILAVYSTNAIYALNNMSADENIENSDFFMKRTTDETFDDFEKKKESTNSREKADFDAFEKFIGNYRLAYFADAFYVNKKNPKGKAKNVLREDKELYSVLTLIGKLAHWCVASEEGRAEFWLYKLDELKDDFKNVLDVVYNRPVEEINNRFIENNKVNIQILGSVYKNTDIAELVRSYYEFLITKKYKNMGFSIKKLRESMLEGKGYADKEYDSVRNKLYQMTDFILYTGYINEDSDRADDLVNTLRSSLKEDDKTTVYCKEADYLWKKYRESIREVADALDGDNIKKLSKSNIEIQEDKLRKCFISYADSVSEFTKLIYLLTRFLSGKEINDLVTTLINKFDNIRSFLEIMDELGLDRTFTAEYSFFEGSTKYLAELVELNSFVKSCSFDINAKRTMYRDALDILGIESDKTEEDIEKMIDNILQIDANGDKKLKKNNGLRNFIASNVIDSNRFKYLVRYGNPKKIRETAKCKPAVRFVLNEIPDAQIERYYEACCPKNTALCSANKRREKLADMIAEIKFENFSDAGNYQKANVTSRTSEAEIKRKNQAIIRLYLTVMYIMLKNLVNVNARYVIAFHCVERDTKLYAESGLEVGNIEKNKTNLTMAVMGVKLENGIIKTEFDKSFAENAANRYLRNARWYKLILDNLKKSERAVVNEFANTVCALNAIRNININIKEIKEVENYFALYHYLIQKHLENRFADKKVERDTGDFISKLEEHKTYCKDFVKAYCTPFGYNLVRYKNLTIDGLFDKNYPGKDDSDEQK
Assay: crRNA (strand 1, pre-loaded); Mg2+; 40 mM Tris-HCl pH 7.5, 150 mM NaCl, 6 mM MgCl2, 1 mM DTT, 0.1% Tween-20, 0.2 mg/ml BSA; 25 C; 10 min per concentration, then washed
Details: tags: His6-TwinStrep-SUMO cleaved; N-terminal SNAP kept (SNAP-Surface 488); label: 3' end held by stalled T7 RNA polymerase
Assay endpoint: pKd
The scale used: pKd is minus the common logarithm of the concentration in molar units.

target 1 complement block 5-9 (mixed) RNA 1: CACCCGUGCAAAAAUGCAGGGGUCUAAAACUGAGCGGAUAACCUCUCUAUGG RNA 2: GGGAAUGGAUCCACAUCUACGAAUUCGUACCAUAGAGAGGUUUAGGCCUCACCGAGAUCGGAAGAGCACACGU; 7.76
target 1 MT 5'PFS GUC 3'PFS CUU (mixed) RNA 1: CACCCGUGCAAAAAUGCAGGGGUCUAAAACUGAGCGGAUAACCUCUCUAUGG RNA 2: GGGAAUGGAUCCACAUCUACGAAUUCGUCCCAUAGAGAGGUUAUCCGCUCACUUAGAUCGGAAGAGCACACGU; 7.86
target 3 C1G,A12U (mixed) RNA 1: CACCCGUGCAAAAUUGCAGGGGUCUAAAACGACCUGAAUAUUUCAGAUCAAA RNA 2: GGGAAUGGAUCCACAUCUACGAAUUCGUUUUUGAUCUGAUAUAUUCAGGUGUGCAGAUCGGAAGAGCACACGU; 7.20

Moving on to another binder below.
Briefly, pKd measured for target 1 MT 5'PFS GCG 3'PFS CUU (mixed) RNA 1: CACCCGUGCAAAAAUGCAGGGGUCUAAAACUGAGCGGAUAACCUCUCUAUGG RNA 2: GGGAAUGGAUCCACAUCUACGAAUUCGCGCCAUAGAGAGGUUAUCCGCUCACUUAGAUCGGAAGAGCACACGU : 7.81
